Before we begin, note that these IC50 values for UniProtKB P00915 originate from several publications.
assayMetric: IC50 (µM)

>  <structureNotation>
NS(=O)(=O)c1ccc(NC(=S)NC(=O)c2ccccc2Cl)cc1

>  <resultUnit>
µM

>  <IC50>
0.661

$$$$
>  <structureNotation>
O=C(NCCNS(=O)(=O)c1ccc(Oc2ccccc2)cc1)P(=O)(O)O

>  <resultUnit>
µM

>  <IC50>
0.98

$$$$

(P) O=c1cc(Cn2c[n+](CCCCCn3c[n+](Cc4cc(=O)oc5cc(O)ccc45)c4ccccc43)c3ccccc32)c2ccc(O)cc2o1
(Q) O=c1cc(C[n+]2cn(Cc3ccc4ccccc4c3)c3ccccc32)c2ccc(O)c(O)c2o1
(R) O=C(NCCCNS(=O)(=O)c1ccc(Oc2ccccc2)cc1)P(=O)(O)O
(S) O=C(NCCN1CCCCC1)P(=O)(O)O
(T) NS(=O)(=O)c1cccc(NC(=S)NC(=O)c2ccc(Cl)cc2Cl)c1
In: Could you please order the items by IC50, going from the lowest number to the highest? // respond by listing labels in the order requested
Out: R, T, Q, S, P
(R: 0.71 µM, T: 1.34 µM, Q: 4.99 µM, S: 7.82 µM, P: 99 µM)
